Where these numbers come from: ChEMBL document CHEMBL1145222

tested on: Bacillus subtilis; assay: Zone of inhibition of Bacillus subtilis at compound concentration of 160 mg/mL; format: functional
Exercise: state measured Inhibition for each of the compounds provided.
I only need the number, in mm, no unit after it.

Inquiry: So what does the record say about Inhibition for COc1ccc(Cl)cc1C(=O)NCNc1ccc(S(=O)(=O)NN)cc1 ?
Reply text: 11.5

Inquiry: So what does the record say about Inhibition for Cc1cc(NS(=O)(=O)c2ccc(N)cc2)no1 ?
Reply text: 20

Inquiry: So what does the record say about Inhibition for Nc1ccc(S(N)(=O)=O)cc1 [SULFANILAMIDE] ?
Reply text: 13

---

system: Klebsiella pneumoniae; assay: Zone of inhibition of Klebsiella pneumoniae at compound concentration of 40 mg/mL; type: functional
Exercise: state measured Inhibition for each of the compounds provided.
Show the value, then the unit it is measured in.

Inquiry: So what does the record say about Inhibition for COc1ccc(Cl)cc1C(=O)NCNc1ccc(S(=O)(=O)Nc2ncccn2)cc1 ?
Reply text: 7.5 mm

Inquiry: So what does the record say about Inhibition for COc1ccc(Cl)cc1C(=O)NCNc1ccc(S(=O)(=O)[N-]C(C)=O)cc1.[Na+] ?
Reply text: 10 mm

Inquiry: So what does the record say about Inhibition for COc1ccc(Cl)cc1C(=O)NCN(C)C ?
Reply text: 7 mm

Inquiry: So what does the record say about Inhibition for COc1ccc(Cl)cc1C(=O)NCNc1ccc(S(=O)(=O)NN)cc1 ?
Reply text: 7 mm

Inquiry: So what does the record say about Inhibition for COc1ccc(Cl)cc1C(=O)NCN1CCOCC1 ?
Reply text: 10.5 mm
